target: Potassium voltage-gated channel subfamily KQT member 2 (Rattus norvegicus) (UniProt O88943); experiment: KCNQ2 potentiation in CHO cells – cell-based, FluxOR thallium flux, counter-screen for hERG block protector project, confirmation (AID 1942); conditions: FluxOR thallium flux fluorescence, at 10 µM, active compounds read high;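 further: normalized value minus buffer-control mean plus three SD of buffer wells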
Sequence (O88943 whole entry, looked up): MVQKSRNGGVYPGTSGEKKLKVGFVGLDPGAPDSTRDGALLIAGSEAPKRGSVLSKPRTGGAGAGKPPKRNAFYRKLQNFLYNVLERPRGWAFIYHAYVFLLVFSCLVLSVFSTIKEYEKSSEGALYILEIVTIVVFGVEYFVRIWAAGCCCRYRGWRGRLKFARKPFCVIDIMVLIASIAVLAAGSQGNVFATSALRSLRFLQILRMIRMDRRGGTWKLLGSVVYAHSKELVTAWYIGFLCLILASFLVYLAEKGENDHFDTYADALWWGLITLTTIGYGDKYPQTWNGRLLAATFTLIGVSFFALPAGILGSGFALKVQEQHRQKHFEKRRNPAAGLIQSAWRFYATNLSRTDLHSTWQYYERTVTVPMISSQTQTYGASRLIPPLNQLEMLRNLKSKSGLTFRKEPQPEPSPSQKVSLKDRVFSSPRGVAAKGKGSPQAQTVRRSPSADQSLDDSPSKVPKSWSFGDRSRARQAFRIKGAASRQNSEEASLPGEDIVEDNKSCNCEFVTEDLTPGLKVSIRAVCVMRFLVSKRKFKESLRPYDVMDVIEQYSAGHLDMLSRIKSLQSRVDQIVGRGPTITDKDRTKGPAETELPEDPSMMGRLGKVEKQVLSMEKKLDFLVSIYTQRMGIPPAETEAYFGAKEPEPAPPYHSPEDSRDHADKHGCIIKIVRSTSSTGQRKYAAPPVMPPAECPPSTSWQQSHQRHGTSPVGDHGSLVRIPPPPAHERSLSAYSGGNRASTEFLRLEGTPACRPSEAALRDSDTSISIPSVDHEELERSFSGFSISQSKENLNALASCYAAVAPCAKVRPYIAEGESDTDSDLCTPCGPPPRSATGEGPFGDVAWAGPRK
About 580 (24%) of roughly 2,400 compounds were called active. Not all results are given here.
activity change, less the hit threshold values by entry
# value in %; strip the unit string

Observe how each entry below is paired with its result.
> print(dat)
                                   compound                    experimental.endpoint  unit.abbrev  recorded.measurement
1  CC1(OC(=O)c2ccc(Cl)nc2)C(=O)C=C2C=C(c3ccc(C#N)cc3)OC=C2C1=O (stereo not given)  activity change, less the hit threshold            %                 -15.2
2  Nc1ccc(C(=O)OCC(=O)N2CCN(C(=O)c3ccco3)CC2)cc1[N+](=O)[O-]  activity change, less the hit threshold            %                 -23.4
3  C/C(CC(=O)Nc1ccccn1)=N\NC(=O)C(=O)Nc1cccc(Cl)c1C  activity change, less the hit threshold            %                   1.1
4  Cc1cc(S(=O)(=O)Nc2ccc(C(=O)N3CCN(C(=O)c4ccco4)CC3)cc2)ccc1F  activity change, less the hit threshold            %                   3.4
5         CCOC(=O)NC(=S)Nc1ccc(C(C)(C)C)cc1  activity change, less the hit threshold            %                     1

Item under review: COc1cccc(C2C3=C(N=c4s/c(=C\c5ccc(OCC(=O)O)cc5)c(=O)n42)c2ccccc2CC3)c1 (stereo not given) . Reported activity change, less the hit threshold?
-38.5

Item under review: "Oc1c(Br)cc(Br)cc1C=Nc1ccc2c(c1)OCCO2" . Reported activity change, less the hit threshold?
-1.5

Item under review: "CCOC(=O)NC(=S)Nc1ccc(C(C)(C)C)cc1Br" . Reported activity change, less the hit threshold?
2.1

Item under review: "COc1cccc(OCC(=O)NNC(=O)C(=O)Nc2cccc(C)c2)c1" . Reported activity change, less the hit threshold?
33.1

Item under review: "O=C(COc1cccc(-n2cnnn2)c1)Nc1ccc([N+](=O)[O-])cc1" . Reported activity change, less the hit threshold?
-13.3

Item under review: "O=[N+]([O-])c1ccc(CSc2nnc(SCc3ccc(Cl)cc3)s2)cc1" . Reported activity change, less the hit threshold?
-10.9

Item under review: "O=C(CCC1CCCC1)NNC(=O)c1cccc(Cl)c1" . Reported activity change, less the hit threshold?
11.7

Item under review: "Cn1nnnc1SCC(=O)Nc1ccccn1" . Reported activity change, less the hit threshold?
-5.9
